Molecular target: PPARδ (Homo sapiens)
Construct: expressed in transfected cells; host or cells: COS-7
Sequence (Q03181 211-439): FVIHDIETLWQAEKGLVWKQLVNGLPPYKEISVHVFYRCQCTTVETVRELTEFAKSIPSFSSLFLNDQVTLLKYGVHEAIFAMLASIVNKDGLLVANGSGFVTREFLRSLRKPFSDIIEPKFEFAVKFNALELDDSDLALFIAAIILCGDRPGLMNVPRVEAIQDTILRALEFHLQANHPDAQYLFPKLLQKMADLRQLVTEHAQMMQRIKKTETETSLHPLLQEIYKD
Experiment: PPAR transactivation assay in COS-7 cells (Gal4-hPPAR-LBD, luciferase)
Assay type: cell-based
Settings: i.a. = inactive
Assay metric: EC50 PPARδ

• CCOC(=O)C(CC)Cc1cccc(C(=O)NCc2ccccc2C(F)(F)F)c1 (stereo not drawn) [Compound 15b] = i.a.
• CCC(Cc1ccc(C(=O)NCc2ccc(OC(F)(F)F)cc2)cc1)C(=O)O (stereo not drawn) = n.t. i.a. i.a. n.t.
• CCOC(=O)C(CC)Cc1ccc(C(=O)NCc2ccc(OC)cc2C(F)(F)F)cc1 (stereo not drawn) [Compound 14b] = n.t. i.a. i.a. n.t.
• CCC(Cc1ccc(C(=O)NCc2ccccc2C)cc1)C(=O)O (stereo not drawn) = n.t. i.a. i.a. n.t.
• CCOC(=O)/C(=C/c1ccc(C(=O)NCc2ccccc2C(F)(F)F)cc1)CC = i.a.
• O=C(NCc1ccccc1C(F)(F)F)c1ccc(-c2nnn[nH]2)cc1 = i.a.
• O=C(NCc1ccccc1C(F)(F)F)c1ccc(C2CC2C(=O)O)cc1 (stereo not drawn) = i.a.
• CCOC(=O)C(CC)Cc1ccc(C(=O)NCc2ccc(F)cc2C(F)(F)F)cc1 (stereo not drawn) [Compound 13b] = n.t. i.a. i.a. n.t.
• CCC(Cc1ccc(C(=O)NCc2ccccc2Br)cc1)C(=O)O (stereo not drawn) = n.t. i.a. i.a. n.t.

====

Molecular target: PPARδ (Homo sapiens)
Construct: expressed in transfected cells; host or cells: COS-7
Assay: PPAR transactivation assay in COS-7 cells (Gal4-hPPAR-LBD, luciferase)
Assay type: cell-based
Assay metric: EC50 PPARδ

• O=C(O)c1cccc(-c2ccc(C(=O)NCc3ccccc3C(F)(F)F)cc2)c1 = i.a.
• CCOC(=O)C(CC)Cc1ccc(C(=O)NCc2ccc(F)cc2)cc1 (centres unmarked) = n.t. i.a. i.a. n.t.
• CCOC(=O)C(CC)Cc1ccc(C(=O)NCc2ccccc2)cc1 (centres unmarked) = n.t. i.a. i.a. n.t.
• CCC(Cc1ccc(C(=O)NCc2ccccc2)cc1)C(=O)O (centres unmarked) = n.t. i.a. i.a. n.t.
• O=C(O)c1ccc(-c2ccc(C(=O)NCc3ccccc3C(F)(F)F)cc2)cc1 = i.a.

====

Assay: Water solubility approximation
Type: physicochemical
Details: aqueous with cosolvent or surfactant or cyclodextrin, kinetic from dmso stock; PBS pH 7.4, 0.01% Polysorbate 20, 1% DMSO; precipitation at 650 nm; read-out: w.s. (water solubility)
Assay metric: solubility (µM)

• CCC(Cc1ccc(C(=O)NCc2ccc(OC)cc2C(F)(F)F)cc1)C(=O)O (centres unmarked) [Compound 14c] = 500
• CCC(Cc1ccc(C(=O)NCc2ccccc2C(F)(F)F)cc1)C(=O)O (centres unmarked) = 100

====

Molecular target: PPARα (Homo sapiens, UniProt Q07869)
Construct: expressed in transfected cells; host or cells: COS-7
Sequence (Q07869 239-466): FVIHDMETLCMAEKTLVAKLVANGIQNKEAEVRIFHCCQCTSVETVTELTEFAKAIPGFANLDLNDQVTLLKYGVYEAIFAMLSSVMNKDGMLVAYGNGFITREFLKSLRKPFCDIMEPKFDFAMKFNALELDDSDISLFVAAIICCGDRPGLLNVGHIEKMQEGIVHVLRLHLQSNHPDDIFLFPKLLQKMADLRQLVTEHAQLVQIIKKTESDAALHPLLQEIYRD
Assay type: cell-based
Settings: at 10 μM; compared to GW7647 1 μM
Assay metric: PPARα activation @10 μM (%)

* CCOC(=O)C(CC)Cc1ccc(C(=O)NCc2ccc(OC)cc2C(F)(F)F)cc1 (centres unmarked) [Compound 14b] | 22
* CCOC(=O)C(CC)Cc1ccc(C(=O)NCc2ccccc2C)cc1 (centres unmarked) | 15
* CCC(Cc1ccc(C(=O)NCc2ccc(OC)cc2C(F)(F)F)cc1)C(=O)O (centres unmarked) [Compound 14c] | 29
* CCOC(=O)C(CC)Cc1ccc(C(=O)NCc2ccc(C(F)(F)F)cc2)cc1 (centres unmarked) | 22

====

Target: PPARα (Homo sapiens)
Construct: expressed in transfected cells; host or cells: COS-7
Format: cell-based
Details: i.a. = inactive
Assay metric: EC50 PPARα

• CCOC(=O)C(CC)Cc1ccc(C(=O)NCc2ccccc2OC(F)(F)F)cc1 (stereo not drawn) [Compound 6b] = n.t. i.a. i.a. n.t.
• CCOC(=O)C(CC)Cc1ccc(C(=O)NCc2ccccc2Cl)cc1 (stereo not drawn) [Compound 4b] = n.t. i.a. i.a. n.t.
• CCC(Cc1ccc(C(=O)NCc2ccccc2C)cc1)C(=O)O (stereo not drawn) [Compound 3c] = i.a.
• CCOC(=O)C(CC)Cc1ccc(C(=O)NCc2ccccc2Br)cc1 (stereo not drawn) [Compound 5b] = n.t. i.a. i.a. n.t.
• CCC(Cc1ccc(C(=O)NCc2ccc(OC)cc2)cc1)C(=O)O (stereo not drawn) [Compound 10c] = n.t. i.a. i.a. n.t.
• CCOC(=O)C(CC)Cc1ccc(C(=O)NCc2ccc(F)cc2C(F)(F)F)cc1 (stereo not drawn) [Compound 13b] = n.t. i.a. i.a. n.t.
• CCC(Cc1ccc(C(=O)NCc2ccc(Cl)cc2)cc1)C(=O)O (stereo not drawn) [Compound 11c] = n.t. i.a. i.a. n.t.
• CCOC(=O)C(CC)Cc1ccc(C(=O)NCc2ccccc2C(F)(F)F)cc1 (stereo not drawn) [Compound 1b] = i.a.

====

Biological target: recombinant human sEH (Homo sapiens)
Sequence (P34913 whole entry): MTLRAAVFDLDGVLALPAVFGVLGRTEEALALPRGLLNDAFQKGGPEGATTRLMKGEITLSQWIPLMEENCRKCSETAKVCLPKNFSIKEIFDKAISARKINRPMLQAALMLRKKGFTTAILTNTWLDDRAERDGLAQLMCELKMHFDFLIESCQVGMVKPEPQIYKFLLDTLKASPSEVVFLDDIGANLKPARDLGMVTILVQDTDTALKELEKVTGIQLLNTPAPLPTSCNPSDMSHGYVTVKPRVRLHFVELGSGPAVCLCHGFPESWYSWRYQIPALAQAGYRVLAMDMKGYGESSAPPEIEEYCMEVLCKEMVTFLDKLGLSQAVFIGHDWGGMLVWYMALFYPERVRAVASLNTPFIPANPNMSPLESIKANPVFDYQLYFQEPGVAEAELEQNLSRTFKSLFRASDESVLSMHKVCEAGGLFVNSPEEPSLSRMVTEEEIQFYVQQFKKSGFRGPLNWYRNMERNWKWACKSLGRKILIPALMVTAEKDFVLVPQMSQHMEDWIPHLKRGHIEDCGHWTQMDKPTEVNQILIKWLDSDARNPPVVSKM
Test: biochemical
Settings: read-out: IC50 sEH (converted)
Rule: measured IC50 below 400 nM gets 1; anything equal to or greater than 400 nM gets 0.

- CCOC(=O)/C(=C/c1ccc(C(=O)NCc2ccc(Oc3ccccc3)cc2)cc1)CC [Compound 12a]: 0
- CCOC(=O)/C(=C/c1ccc(C(=O)NCc2ccc(OC)cc2C(F)(F)F)cc1)CC [Compound 14a]: 1
- CCOC(=O)/C(=C/c1ccc(C(=O)NCc2ccc(Cl)cc2)cc1)CC [Compound 11a]: 0
- CC/C(=C\c1ccc(C(=O)NCc2ccc(OC(F)(F)F)cc2)cc1)C(=O)O: 0
- CCC/C(=C\c1ccc(C(=O)NCc2ccccc2C(F)(F)F)cc1)C(=O)OCC [Compound 18a]: 1
- CCOC(=O)/C(=C/c1ccc(C(=O)NCc2ccc(C(F)(F)F)cc2)cc1)CC: 0
- O=C(O)/C(=C/c1ccc(C(=O)NCc2ccccc2C(F)(F)F)cc1)c1ccccc1 [Compound 19d]: 0
- CC/C(=C\c1ccc(C(=O)NCc2ccc(F)cc2C(F)(F)F)cc1)C(=O)O [Compound 13d]: 0
- CCCC(Cc1ccc(C(=O)NCc2ccccc2C(F)(F)F)cc1)C(=O)O (centres unmarked) [Compound 18c]: 0
- CCOC(=O)/C(=C/c1cccc(C(=O)NCc2ccccc2C(F)(F)F)c1)CC [Compound 15a]: 1
- O=C(O)c1ccc(-c2ccc(C(=O)NCc3ccccc3C(F)(F)F)cc2)cc1: 1
- CCOC(=O)/C(=C/c1ccc(C(=O)NCc2ccc(F)cc2C(F)(F)F)cc1)CC [Compound 13a]: 1
- CC(Cc1ccc(C(=O)NCc2ccccc2C(F)(F)F)cc1)C(=O)O (centres unmarked) [Compound 17c]: 0
- CC/C(=C\c1ccc(C(=O)NCc2ccc(C(F)(F)F)cc2)cc1)C(=O)O: 0
- CCOC(=O)C(CC)Cc1ccc(C(=O)NCc2ccccc2C(F)(F)F)cc1 (centres unmarked): 1
- CCOC(=O)/C(=C/c1ccc(C(=O)NCc2ccc(OC(F)(F)F)cc2)cc1)CC: 0

====

Molecular target: PPARα (Homo sapiens)
Construct: expressed in transfected cells; host or cells: COS-7
Assay type: cell-based
Settings: i.a. = inactive
Assay metric: EC50 PPARα

• CC(Cc1ccc(C(=O)NCc2ccccc2C(F)(F)F)cc1)C(=O)O (stereo not shown) [Compound 17c] = i.a.
• CCC(Cc1ccc(C(=O)NCc2ccccc2C(F)(F)F)cc1)C(=O)O (stereo not shown) = i.a.
• O=C(O)CCc1ccc(C(=O)NCc2ccccc2C(F)(F)F)cc1 [Compound 16c] = i.a.
• O=C(NCc1ccccc1C(F)(F)F)c1ccc(-c2nnn[nH]2)cc1 = i.a.
• CCCC(Cc1ccc(C(=O)NCc2ccccc2C(F)(F)F)cc1)C(=O)OCC (stereo not shown) [Compound 18b] = i.a.
• O=C(NCc1ccccc1C(F)(F)F)c1ccc(C2CC2C(=O)O)cc1 (stereo not shown) = i.a.
• CCOC(=O)CCc1ccc(C(=O)NCc2ccccc2C(F)(F)F)cc1 [Compound 16b] = i.a.
• CCC(Cc1ccc(C(=O)NCc2ccc(F)cc2C(F)(F)F)cc1)C(=O)O (stereo not shown) [Compound 13c] = n.t. i.a. i.a. n.t.
• CCC(Cc1ccc(C(=O)NCc2ccccc2Br)cc1)C(=O)O (stereo not shown) = n.t. i.a. i.a. n.t.
• CC/C(=C\c1ccc(C(=O)NCc2ccccc2C(F)(F)F)cc1)C(=O)O = i.a.
• CCC(Cc1ccc(C(=O)NCc2ccccc2Cl)cc1)C(=O)O (stereo not shown) = n.t. i.a. i.a. n.t.
• O=C(NCc1ccccc1C(F)(F)F)c1ccc(CC(C(=O)O)c2ccccc2)cc1 (stereo not shown) [Compound 19c] = i.a.
• CCCC(Cc1ccc(C(=O)NCc2ccccc2C(F)(F)F)cc1)C(=O)O (stereo not shown) [Compound 18c] = i.a.
• CCOC(=O)C(CC)Cc1ccc(C(=O)NCc2ccc(Cl)cc2)cc1 (stereo not shown) [Compound 11b] = n.t. i.a. i.a. n.t.
• CCC(Cc1ccc(C(=O)NCc2ccc(F)cc2)cc1)C(=O)O (stereo not shown) = n.t. i.a. i.a. n.t.
• CCOC(=O)C(CC)Cc1ccc(C(=O)NCc2ccc(OC)cc2)cc1 (stereo not shown) [Compound 10b] = n.t. i.a. i.a. n.t.
• CON(C)C(=O)/C=C/c1ccc(C(=O)NCc2ccccc2C(F)(F)F)cc1 = i.a.
• CON(C)C(=O)C1CC1c1ccc(C(=O)NCc2ccccc2C(F)(F)F)cc1 (stereo not shown) = i.a.
• CCOC(=O)/C(=C/c1ccc(C(=O)NCc2ccccc2C(F)(F)F)cc1)CC = i.a.
• CCOC(=O)C(CC)Cc1cccc(C(=O)NCc2ccccc2C(F)(F)F)c1 (stereo not shown) [Compound 15b] = i.a.
• CCOC(=O)C(C)Cc1ccc(C(=O)NCc2ccccc2C(F)(F)F)cc1 (stereo not shown) [Compound 17b] = i.a.
• CCC(Cc1ccc(C(=O)NCc2ccccc2OC(F)(F)F)cc1)C(=O)O (stereo not shown) = n.t. i.a. i.a. n.t.
• CCOC(=O)/C=C/c1ccc(C(=O)NCc2ccccc2C(F)(F)F)cc1 [Compound 16a] = i.a.
• CCOC(=O)C(Cc1ccc(C(=O)NCc2ccccc2C(F)(F)F)cc1)c1ccccc1 (stereo not shown) [Compound 19b] = i.a.
• O=C(O)/C=C/c1ccc(C(=O)NCc2ccccc2C(F)(F)F)cc1 [Compound 16d] = i.a.
